# STUDY_SYSTEM: UniProtKB Q92731
# Sequence (Q92731 whole entry): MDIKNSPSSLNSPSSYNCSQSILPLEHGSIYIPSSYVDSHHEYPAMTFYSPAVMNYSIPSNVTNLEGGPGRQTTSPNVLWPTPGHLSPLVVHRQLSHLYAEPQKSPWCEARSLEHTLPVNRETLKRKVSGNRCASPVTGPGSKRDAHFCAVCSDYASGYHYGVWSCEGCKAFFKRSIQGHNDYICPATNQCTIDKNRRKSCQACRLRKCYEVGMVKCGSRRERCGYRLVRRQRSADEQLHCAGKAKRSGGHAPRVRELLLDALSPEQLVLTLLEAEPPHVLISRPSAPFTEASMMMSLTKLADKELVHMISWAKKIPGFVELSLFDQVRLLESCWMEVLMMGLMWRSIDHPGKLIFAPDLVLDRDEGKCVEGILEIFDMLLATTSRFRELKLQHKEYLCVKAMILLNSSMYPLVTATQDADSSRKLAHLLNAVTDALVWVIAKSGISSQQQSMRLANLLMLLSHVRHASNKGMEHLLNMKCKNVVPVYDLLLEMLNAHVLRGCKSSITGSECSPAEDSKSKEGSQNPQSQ
# ASSAY_INFO: competitive radiometric binding assay with [3H]estradiol, ERβ
# CONDITIONS: ratio of RBA ERβ to RBA ERα
This section presents compounds with their documented β/α ratio values.
// keep it numeric: no unit symbol after the value

- COMPOUND: "C[C@]12CC[C@@H]3c4ccc(O)cc4CC[C@@]3(CCF)[C@@H]1CC[C@@H]2O [compound 6]"
  β/α ratio: 179
- COMPOUND: "C=C[C@@]12CCc3cc(O)ccc3[C@H]1CC[C@@]1(C)[C@H]2CC[C@@H]1O [compound 1]"
  β/α ratio: 350
- COMPOUND: "N#C[C@H](c1ccc(O)cc1)[C@@H](CCF)c1ccc(O)cc1 [FEDPN]"
  β/α ratio: 20

Consider the record given below.
// query Any idea what β/α ratio was measured for C=Cc1cc(O)cc2nc(-c3ccc(O)c(F)c3)oc12 [ERB-041] ?
// result 460
